Provenance of the data: PubChem BioAssay (NCI)

system: SK-OV-3 ovarian; assay: NCI-60 one-dose screen, 48 h (100 = growth as untreated, 0 = no growth, -100 = all killed); details: 10 µM
The panel holds about 83,000 compounds, 20% with a hit somewhere; the sample as a whole holds those more often.
Below, each entry is listed alongside its reported growth.
Give the quantity in %, number only.

Here's what some known entries look like.
molecule=COc1ccc(-c2nn(-c3cccc(Cl)c3)cc2-c2cc(-c3ccccc3)nc(N)n2)cc1 assay_endpoint=growth numeric_result=98.5
molecule=CC(C)Cc1ccc([C@H](C)C(=O)O)cc1 assay_endpoint=growth numeric_result=119
molecule=COc1cc(-c2ccc(N=Nc3ccc4c(S(=O)(=O)O)ccc(N)c4c3O)c(OC)c2)ccc1N=Nc1ccc2c(S(=O)(=O)O)ccc(N)c2c1O assay_endpoint=growth numeric_result=91.4
molecule="CCN(CC)CCCC(C)Nc1c2ccc(Cl)cc2nc2ccc(OC)cc12 (stereo not given)" assay_endpoint=growth numeric_result=39.3
molecule=OCCn1cccn1 assay_endpoint=growth numeric_result=104

# context switch: different molecule, same growth
Query string: Reported growth, molecule `O=C(CCCNC(=O)c1nc(-c2ccccc2)n(-c2ccccc2)n1)NO` : ____
Result string: 97

* * *

Test system: BT-549 breast
Assay: NCI-60 one-dose screen, 48 h (100 = growth as untreated, 0 = no growth, -100 = all killed)
Conditions: 10 µM
Description: Growth inhibition of the BT-549 human tumor cell line is measured as a screen for anti-cancer activity. Cells are grown in 96 well plates and exposed to the test compound for 48 hours. Compounds are tested at a single concentration, which is 10^-5 M for most compounds. The reported endpoint is percent growth (GI% or GIPRCNT), where numbers from 0 - 100% represent growth inhibition, and numbers from -100% - 0 represent cell death. For example, a value of 40 represents 60% growth inhibition. […]
This is part of a sample that, as a whole, favours compounds with a hit. Of some 83,000 tested, about 20% had one in any assay.
Returns Satisfied if the recorded growth is greater than or equal to 70%, and Not satisfied otherwise.

molecule=COc1cccc2ccc(CC(O)(c3ccccc3)c3ccccc3)nc12 assigned_label=Satisfied

Query string: Record `NS(=O)(=O)c1ccc(N2N=C(c3ccccc3)CCC2=O)cc1` ; criterion: growth no lower than 70%. Met?
Result string: Satisfied

Query string: Can `Cn1cnc([N+](=O)[O-])c1/C=C1\Oc2ccc(Br)cc2C1=O` be said to have growth at or above 70%?
Result string: Satisfied

Query string: Please tell me: is the molecule `COc1ccc(-c2nn(-c3cccc(Cl)c3)cc2-c2c(C#N)c(=O)n3[nH]c(-c4ccccc4)nc3c2C#N)cc1` at or over 70% in terms of growth?
Result string: Satisfied

Query string: Say whether `C[C@]12CC[C@@H]3c4ccc(OS(=O)(=O)O)cc4CC[C@H]3[C@@H]1CC[C@@H]2NS(=O)(=O)c1ccc(-c2ccccc2)cc1` shows growth of 70% or more.
Result string: Not satisfied

Query string: For this molecule, is measured growth 70% or higher? `COc1ccc(C(=O)COc2cccc(/C=C3\Cc4ccccc4C3=O)c2)cc1`
Result string: Satisfied

Query string: Please indicate if the recorded growth for `O=C1/C(=C/c2cccc(F)c2)Cc2ccccc21` meets or exceeds 70%.
Result string: Satisfied

* * *

test system: HOP-92 NSCLC; assay: NCI-60 one-dose screen, 48 h; settings: 10 µM
About 83,000 compounds went through this panel and 20% of them were active in at least one assay; those are over-represented in the sample as a whole. Calls of active or inactive are those of the source. The calls were made as follows: active = growth percent below 10; inactive = the rest.
Field 'call' accepts label 1 for active, label 0 for inactive

Before answering, review these 5 worked examples.
compound=NC1=CC(=O)C(=O)c2cccnc21 assigned_label="label 0"
compound=COc1ccc(/C=C/c2nnc(/C=C/c3ccc(OC)c(OC)c3)o2)cc1OC assigned_label="label 0"
compound="Nc1nc(Cl)nc2c1ncn2C1O[C@H](CO)[C@@H](O)[C@@H]1F (stereo not given in full)" assigned_label="label 0"
compound=CN(C)CCOc1cccc(-c2nc3sccn3c2-c2ccnc(S(C)(=O)=O)n2)c1 assigned_label="label 0"
compound="COc1cc(C2CC(c3ccccc3)=NN2C(C)=O)cc(OC)c1OC (stereo not given)" assigned_label="label 0"

Query string: Call for entry CC(=O)[C@@]12O[C@](C)(c3ccccc3)O[C@@H]1CC1C3CCC4=CC(=O)CC[C@]4(C)C3CC[C@@]12C (stereo not given in full) :
Result string: label 0

Query string: // param item: `CN(C)CCOc1cccc(NC2=C(Cl)C(=O)C(Nc3cccc(OCCN(C)C)c3)=C(Cl)C2=O)c1` ; yields the recorded call
Result string: label 1

Query string: Name the outcome recorded for CC1=CC2C(C(O)CC3(C)C2CC(C)C32OCOC23COCO3)C2(C)C/C(=C/O)C(=O)C=C12 (stereo not given) in the assay.
Result string: label 0

Query string: Each compound tested received a call. Report the one for CCOC(=O)C1=CSC2=NC3=C(CCC/C3=C\c3cc(OC)c(OC)c(OC)c3)C(c3cc(OC)c(OC)c(OC)c3)N12 (stereo not given) .
Result string: label 0

Query string: Could you please tell me the result logged for `Cc1cc(SCc2ccccc2)nc(N)n1` in this assay?
Result string: label 0
